Assay: NCI Yeast Anticancer Drug Screen. Data for the rad50 strain (AID 155);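 further: 0% = growth of vehicle-only cultures of the same strain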
Conditions: S. cerevisiae rad50 strain growth inhibition; at 5.0 µM (retest, dose inferred, filed as 0.5)
This is part of a sample that, as a whole, favours compounds with a hit. Of some 79,000 tested, about 15% had one in any assay. Activity calls are given as the source filed them. No stated cut-off is given here; in the data, active means growth inhibition above about 70%; inactive means the rest.
Choose the fitting class; nothing outside active, inactive is accepted.

Answered cases to consult:
1. C#CC1(OC(C)=O)CCC2C3CC=C4C=C(OC(C)=O)CCC4(C)C3CCC21C (stereo not drawn)    inactive
2. O=C1c2ccccc2CCC1Br (stereo not drawn)    inactive
3. CNC1C(O)CC(OC2C/C=C(\C)C/C(C)=C/C=C/CCC(C)CNC(=O)/C=C/C=C/C2C)OC1C (stereo not drawn)    inactive
4. [C-]#[O+].[C-]#[O+].[C-]#[O+].[C-]#[O+].[Mo].c1cnc2c(c1)ccc1cccnc12    inactive
5. O=[N+]([O-])/C=C/c1ccc([N+](=O)[O-])cc1    active
6. C[CH2][Sn]1([CH2]C)[O]C2C(OC)OC3COC(c4ccccc4)OC3C2[O]1 (stereo not drawn)    active
7. Cc1c(=O)n(O)c2ccccc2[n+]1[O-]    inactive
8. C1CN1[PH+](N1CC1)N1CC1.C1CN1[PH+](N1CC1)N1CC1.[I][Pt][I]    inactive
9. NS(=O)(=O)CCl.[Hg]    inactive
10. O=C([CH-]C(=O)c1ccccc1)c1ccccc1.O=C([CH-]C(=O)c1ccccc1)c1ccccc1.[CH2-]CCC.[CH2-]CCC.[Sn+4]    active

Please share the test call associated with CC(=O)[O][Hg][c]1ccc(N)[c]([Hg][O]C(C)=O)c1 .
active

Hey, what did the test say about O=[As](O)(O)c1ccc(Cc2ccc([As](=O)(O)O)cc2)cc1 ?
active

For this compound, state the assay outcome: COC(=O)C1=C(C(=O)OC)C2(C)OC1c1ccccc12 (stereo not drawn)
inactive

Recorded test outcome, item CC/C=C/c1cc2c(cc1O)CCC1C2CC[C@@]2(C)C1CC[C@@H]2O (stereo partly drawn)
inactive

Called result for CC(C)c1ccccc1OP(=S)(S)Oc1ccccc1C(C)C
inactive

Look up the recorded call for O=C1C=C(N2CC2)C(=O)C=C1N1CC1 in this test.
active

What call does the record list for N#CS.[Ag] ?
inactive

What did the test return for COc1ccccc1C(Cc1ccc(N2C(N)=NC(N)=NC2(C)C)cc1)C(=O)Nc1ccc(S(=O)(=O)F)cc1 (stereo not drawn) ?
inactive

Outcome? COC1CCCC2OC3(OC)C(OC)CCCC3OC12OC (stereo not drawn)
inactive

----------
Assay: NCI Yeast Anticancer Drug Screen. Data for the bub3 strain (AID 167)
Conditions: S. cerevisiae bub3 mutant strain, at 50.0 µM
The panel holds about 79,000 compounds, 15% with a hit somewhere; the sample as a whole holds those more often. The source made the active and inactive calls. Rule as the data show it: active = growth inhibition above about 70%; inactive = the rest.
API: response.call in T for active, F for inactive

Some solved entries appear below for comparison.
1) O=C(Cc1ccccc1)Nc1ccc(Cl)cc1C(=O)c1ccccc1    F
2) Nc1cc(N)nc(N)n1    F
3) CN(Cc1ccccc1)CC(O)c1cccc(I)c1 (stereo not drawn)    F
4) CSc1nsc(-c2ccccc2)[s+]1    F
5) CC12CCCCC1C(=O)C2(Cl)Cl (stereo not drawn)    F

Given C[CH2][Sn]([CH2]C)([O]c1cccccc1=O)[O]c1cccccc1=O , state the outcome it received in this test.
F

Any idea what this test logged for O=C(NC(=S)N1CC1)c1ccccc1 ?
F

For N#CS.[Ag] , which call appears in the assay record?
T

What is the recorded call for this compound in the test? CN(C(=[Se])[Se]C(=[Se])N(C)C1CCCCC1)C1CCCCC1
F

Call for entry O=C1NC(=O)C2(OC3c4ccccc4C=CN3C3=C2C(=O)CCC3)C(=O)N1 (stereo not drawn) :
F

Which outcome was entered for the compound O=S(=O)(O)O/N=C(\Cc1ccccc1)SC1OC(CO)C(O)C(O)C1O (stereo not drawn) in this test?
F

Can you look up the reported call for O=NNc1ccc(Br)cn1 for me?
F

// outcome(item) with item = O=C(NP(=O)(N1CC1)N1CC1)c1cc(I)ccc1I
F

----------
Experiment: NCI Yeast Anticancer Drug Screen. Data for the rad50 strain (AID 155);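 further: 0% = growth of vehicle-only cultures of the same strain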
Conditions: S. cerevisiae rad50 strain growth inhibition; at 5.0 µM (retest, dose inferred, filed as 0.5)
This is part of a sample that, as a whole, favours compounds with a hit. Of some 79,000 tested, about 15% had one in any assay. The source made the active and inactive calls. Cut-off read from the data, not from the text of the source: active = growth inhibition above about 70%; inactive = the rest.
Choose one outcome from this list and give only that: active, inactive

1. COc1ccc(O)c(/C=C/[N+](=O)[O-])c1    inactive
2. C[N+](C)(C)CC1CCCC1=O (configuration not stated)    inactive
3. N#CC(Cl)(Cl)CCl    inactive

Give the logged outcome of this assay for the following compound: O=NNc1c[nH]c(=O)[nH]c1=O
inactive

What did this assay record as the result for ClC1=C(Cl)C2(Cl)C(Cl)CC1(Cl)C2(Cl)Cl (configuration not stated) ?
inactive

What did the test return for O=C1N[C@H]2[C@H](O)[C@H](O)[C@@H](O)[C@H](O)[C@@H]2c2cc3c(c(O)c21)OCO3 ?
inactive

Just curious, what result did CCC[CH2][Sn]1([CH2]CCC)[O]CC(Cc2ccccc2)[O]1 (configuration not stated) get here?
inactive

----------
Assay: NCI Yeast Anticancer Drug Screen. Data for the cln2 rad14 strain (AID 165);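 further: 0% = growth equal to vehicle treated cultures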
Conditions: S. cerevisiae cln2 rad14 strain, at 50.0 µM (retest, dose inferred, filed as 5.0)
Compounds without any hit were thinned out: in the full panel of roughly 79,000, 15% have a hit. Activity calls are given as the source filed them. No stated cut-off is given here; in the data, active means growth inhibition above about 70%; inactive means the rest.
Pick one and only one: true for active, false for inactive

1. OC(c1ccccc1)(c1ccccc1)c1ccccn1    false
2. S=C=NC/C(Cl)=C/Cl    true
3. C[Se]C([Se]C)=C([Se]C)[Se]C    false
4. CC1(C)C2CCC([CH2][Hg][Cl])C1C2 (configuration not stated)    true
5. CCN(CC)CC(=O)c1cc2ccccc2c2ccccc12    true
6. O=[N+]([O-])/C=C\C(Cl)(Cl)Cl    true

Record lookup: outcome of this test for CC12CCC3C(CCC4Cc5nc6nnnn6cc5CC43C)C1CCC2O (configuration not stated) ?
false

----------
Assay: NCI Yeast Anticancer Drug Screen. Data for the sgs1 mgt1 strain (AID 161);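 further: 0% = growth of cultures given vehicle only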
Conditions: S. cerevisiae sgs1 mgt1 strain, at 5.0 µM (retest, dose inferred, filed as 0.5), active compounds read high
The panel holds about 79,000 compounds, 15% with a hit somewhere; the sample as a whole holds those more often.
I would appreciate it if you labelled entries Fulfilled when growth inhibition is 10% or higher, otherwise Not fulfilled.

1. Cc1c(=O)n(O)c2ccccc2[n+]1[O-]    Not fulfilled
2. CC1CCN(CCC(=O)CC(c2ccccc2)c2c(O)c3ccccc3oc2=O)CC1 (stereo not given)    Fulfilled
3. Nc1nc(N)c(-c2ccc(Cl)c(Cl)c2)c(COc2cccc(CNS(=O)(=O)c3ccc(S(=O)(=O)F)cc3)c2)n1    Not fulfilled
4. CC/C=C/c1cc2c(cc1O)CCC1C2CC[C@@]2(C)C1CC[C@@H]2O (stereo not given in full)    Not fulfilled
5. Nc1nc(N)c(-c2ccc(Cl)c(Cl)c2)c(COc2ccc(CNC(=O)Nc3cccc(S(=O)(=O)F)c3)cc2Cl)n1    Not fulfilled

Lab note: next compound to report on.
Does the reported growth inhibition for [I][Hg][CH2]C1OCCOC1[CH2][Hg][I] (stereo not given) fall at or above the 10% mark?
Not fulfilled

----------
Experiment: NCI Yeast Anticancer Drug Screen. Data for the bub3 strain (AID 167)
Conditions: S. cerevisiae bub3 mutant strain, at 50.0 µM, active compounds read high
Compounds without any hit were thinned out: in the full panel of roughly 79,000, 15% have a hit.
Exercise: state measured growth inhibition for each of the compounds provided.
Answers are plain numbers, in %.

1. CCC1(CC)COP(=S)(S)OC1    -3.5
2. C=CCC1(OC(C)=O)CCC2C3CCC4CC=CCC4(C)C3CCC21C (configuration not stated)    1
3. CCOP1(=S)NNP(=S)(OCC)NN1 (configuration not stated)    10.2
4. CCCCCCCCc1ccc(OCCN(CCCl)CCCl)cc1    99.2
5. O=NNc1ccc(Cl)cn1    -18.3
6. CCOP(=O)(NC(C)C)OCC    6.8

// below: growth inhibition requested for another compound
Using the record for CC(C)([N+](=O)[O-])S(=O)O , report its growth inhibition.
-5.4

----------
Assay: NCI Yeast Anticancer Drug Screen. Data for the mlh1 rad18 strain (AID 175)
Settings: S. cerevisiae mlh1 rad18 strain growth inhibition; at 50.0 µM; active compounds read high
The panel holds about 79,000 compounds, 15% with a hit somewhere; the sample as a whole holds those more often.
OBSERVATION_TYPE: growth inhibition (%)
One number for each entry, in %.

Example cases with answers are listed next.
1) Cc1cc([N+](=O)[O-])c2ccccc2[n+]1[O-]    49.8
2) C#CC1(O)CCCCCC1    6.8
3) C[n+]1c(/C=C/c2ccc(O)c3ccccc23)[se]c2ccccc21    78.9

Lab note: each compound below needs its growth inhibition filled in.
1. O=C(O)C(CSC(c1ccccc1)(c1ccccc1)c1ccccc1)N=Cc1cccs1 (stereo not drawn)
2. O=C(Oc1ccc(S(=O)(=O)F)cc1Cl)c1ccccc1Cl
3. O=NN(CC(=O)O)c1ncccn1
4. O=C(CCl)Nc1ccccc1Cl

[-18.2, 99.4, 29.4, 45.1]

Dear colleague, could you please provide growth inhibition for the compounds listed below?
1. CCN1CCC2(CC1)COCc1ccccc12
2. CCOc1ccc(Nc2nc(=O)[nH]c3ccccc23)cc1CN(CCCl)CCCl
3. NC(CCCc1ccc(N(CCCl)CCCl)cc1)C(=O)O (stereo not drawn)

29.6
22.4
-8.3

Would you mind listing growth inhibition for each of the following compounds?
1. COc1ccc(NC(=O)C(=O)C(CC2C(=O)NC(=S)NC2=O)C(=O)c2ccc3ccccc3c2)c([N+](=O)[O-])c1 (stereo not drawn)
2. CC(C)=CC1C(C(=O)OCc2ccc(Cl)c(Cl)c2)C1(C)C (stereo not drawn)

1. 3.5
2. 5.25

List the reported growth inhibition of each compound below.
1. CC(C)[C@H](C)/C=C/[C@@H](C)C1CC[C@H]2[C@@]34C=C[C@]5(C[C@@H](O)CC[C@]5(C)[C@H]3CC[C@]12C)OO4 (stereo partly drawn)
2. Cn1nc(-c2ccc(S(=O)(=O)F)cc2)s/c1=N/NC(=O)c1ccccc1
3. O=[N+]([O-])c1c[c]([Hg][Cl])c(O)[c]([Hg][Cl])c1
4. O=C(Nc1ccccc1Cl)OCC(Cl)(Cl)Cl

1. -31.6
2. 3.65
3. 89.2
4. -11.2

// batch mode: one growth inhibition value per listed entry
1. C[CH2][Sn]1([CH2]C)[O]OC(c2ccccc2)[O]1 (stereo not drawn)
2. O=[N+]([O-])c1cc(-c2ccc([As](=O)(O)O)cc2)ccc1[As](=O)(O)O

20.3
-4.15

Could you tell me growth inhibition for each of these compounds? They are listed below.
1. COc1cc([C@@H]2c3cc4c(c(O)c3C[C@H]3COC(=O)[C@@H]32)OCO4)cc(OC)c1O
2. CC(=O)Nc1ccc(C(=O)O)cc1 (tested in a mixture with another compound)
3. CCOP(=O)(CC(=O)c1ccccc1)OCC
4. C#CC(O)(CC)CC
5. c1ccc(N=c2snc(-c3ccccc3)s2)cc1

1. -14.7
2. -7.75
3. 20.8
4. 73.5
5. 80.2
